system tested: rTAP1/TAP2a (wild type) (Rattus norvegicus, UniProt P36370+P36372)
protocol: Competitive inhibition of TC6R crosslinking, wild type TAP
Format: binding
No end group written: not given here.
observed property: pIC50
The meaning of pIC50 here: minus log10 of the concentration in molar units.

Query block: What does the record list as pIC50 for RYWANATKSR [RR] ?
Result block: 6.52
